# Target or system: T1, Human BCMA (human, UniProt Q02223 1-54, limits assumed)
# T1 construct: also called huBCMA; B-cell maturation antigen
# T1 sequence (looked up): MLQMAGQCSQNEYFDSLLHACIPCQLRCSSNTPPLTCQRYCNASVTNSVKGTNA
# Experimental protocol: SPR, IgG immobilised, human BCMA analyte
Endpoint: koff (s⁻¹)
Give the value in s⁻¹ but do not write s⁻¹ after it.

binder="C01_Rd4_6nM_C10 (antibody, V domains shown, IgG) VH: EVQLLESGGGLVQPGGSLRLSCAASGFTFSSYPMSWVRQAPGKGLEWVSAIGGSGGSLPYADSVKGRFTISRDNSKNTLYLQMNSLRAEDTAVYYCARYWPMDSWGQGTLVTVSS VL: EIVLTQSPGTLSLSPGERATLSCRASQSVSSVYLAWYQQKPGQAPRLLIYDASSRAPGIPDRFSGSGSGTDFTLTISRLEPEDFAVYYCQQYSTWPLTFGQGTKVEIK" endpoint=koff readout_unit=s⁻¹ test_result=0.00212
binder="COMBO_Rd4_6nM_C07 (antibody, V domains shown, IgG) VH: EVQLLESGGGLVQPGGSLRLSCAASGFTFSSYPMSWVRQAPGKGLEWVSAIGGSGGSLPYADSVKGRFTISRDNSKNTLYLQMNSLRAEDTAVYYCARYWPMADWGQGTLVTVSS VL: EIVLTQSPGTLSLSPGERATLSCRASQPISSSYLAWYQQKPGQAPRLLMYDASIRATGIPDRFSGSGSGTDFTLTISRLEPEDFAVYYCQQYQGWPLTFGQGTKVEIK" endpoint=koff readout_unit=s⁻¹ test_result=0.000371

Using the record for A02_Rd4_0.6nM_C01 (antibody, V domains shown, IgG; also called P5AC1) VH: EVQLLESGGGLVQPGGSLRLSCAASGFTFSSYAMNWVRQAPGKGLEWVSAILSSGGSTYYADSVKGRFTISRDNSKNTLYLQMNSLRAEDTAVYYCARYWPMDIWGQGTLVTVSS VL: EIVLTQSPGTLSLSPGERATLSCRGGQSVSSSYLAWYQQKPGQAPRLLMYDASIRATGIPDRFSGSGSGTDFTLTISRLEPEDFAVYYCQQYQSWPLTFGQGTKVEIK , report its koff. 0.000915
